- System: BT-549 breast
- experimental.details: NCI tumour cell line growth inhibition, 48 h
endpoint: TGI (µM)
One number for each entry, in µM.

CC[N+]1(C)CCC(O)(/C=C/c2ccccc2)C(C(=O)/C=C/c2ccccc2)C1 (stereo not given) | 34.5

Query: What value of TGI has been reported for the following compound? CCO/C=N/C1=C(C#N)C(c2ccc(OC)c(OC)c2)c2c(-c3ccccc3)nn(-c3ccccc3)c2O1 (stereo not given)
Result: 23.8

====

- Tested on: HCC-2998 colon
- experimental.details: NCI tumour cell line growth inhibition, 48 h
Short version: TGI at least 9 µM is Met, less is Not met.

Query: Please tell me: is the compound COC(=O)C(I(OS(=O)(=O)c1ccc(C)cc1)c1ccccc1)=P(c1ccccc1)(c1ccccc1)c1ccccc1 at or over 9 µM in terms of TGI?
Result: Met

Query: Record C=C1C(=O)O[C@H]2[C@H]1CC/C(Cn1cc(CNC(=O)c3cc4ccccc4[nH]3)nn1)=C\CC[C@@]1(C)O[C@@H]21 ; criterion: TGI no lower than 9 µM. Met?
Result: Met

Query: Dear colleague, could you confirm whether COc1ccc(N=Nc2ccc3oc(=O)c(C(=O)Nc4ccc(OC)cc4)cc3c2)cc1 has TGI at or above 9 µM?
Result: Met

Query: Kindly determine if TGI recorded for COc1cc2c(cc1Nc1nc(Nc3ccsc3C(N)=O)c3cc[nH]c3n1)N(C(=O)CN(C)C)CCC2 is above or exactly 9 µM.
Result: Not met

Query: Hello, I need to know if CC(=O)OC1C(OC/C2=C/C3[C@@H](C(C)C)CC=C(C)[C@@H]3CC(OC(=O)/C=C/c3cn(C)cn3)[C@]3(C)C=C[C@@]2(O)O3)OCC(O)C1O (stereo not given in full) has measured TGI not below 9 µM. Thanks!
Result: Not met

Query: Test whether the compound CC(=O)/C=C\C(=O)NNS(=O)(=O)c1ccc(C)cc1 records TGI of 9 µM or higher.
Result: Met

Query: Form field: TGI at least 9 µM? Entry: Nc1c2ccccc2nc2ccc(C(=O)Nc3ccc(S(N)(=O)=O)cc3)cc12
Result: Met

====

- Test system: HOP-18 NSCLC
- experimental.details: NCI tumour cell line growth inhibition, 48 h
Give measured TGI for each item. Keep answers brief.

Go through the list and state TGI for each entry.
1. COC(=O)C1CCC2(CC1)NC(=O)NC2=O (stereo not drawn)
2. O=C(Cc1nc2ccccc2s1)C(=O)Nc1ccccc1C(F)(F)F
3. COc1cc(/C=C/C(=O)C(C)(C)C)cc(OC)c1OC

Result:
> 100 µM
> 100 µM
> 100 µM

====

I'd be grateful if you could share measured TGI for these entries.
- System: SF-268 CNS
- experimental.details: NCI tumour cell line growth inhibition, 48 h

I have 6 compounds here; please give me TGI for each one.
1. NC(=O)NOCC1NC(=O)NC1=O (stereo unspecified)
2. COC(=O)c1ccc2[nH]c3c(c2c1)CC(=O)Nc1ccccc1-3
3. CN(C)/C=C/c1ccnc2c1C(=O)c1ccccc1C2=O
4. c1ccc(C2(c3cc4ccccc4[nH]3)OCCO2)cc1
5. N#Cc1ccccc1C#C/C=C\C#Cc1cnccn1
6. CN1CCN(c2nc3c(c(=O)n(C)c(=O)n3C)n2C)CC1

Result:
> 100 µM
> 100 µM
> 69 µM
> 100 µM
> 100 µM
> 100 µM

====

- Tested on: SF-539 CNS
- experimental.details: NCI tumour cell line growth inhibition, 48 h
endpoint: TGI (µM)
Give bare numbers, in µM.

Take a look at these entries with their results.
Oc1ccc(-c2nc(-c3ccc4oc5ccc(-c6[nH]c(-c7ccc(O)cc7)nc6-c6ccccc6)cc5c4c3)c(-c3ccccc3)[nH]2)cc1 | 21.3
N#Cc1c(-c2ccc(Cl)cc2)n([O-])c2ccccc2[n+]1=O | 36
COc1ccc2c(c1)CCC1C2CCC2(C)C1CC[C@@]2(O)CNC(=O)/C=C/c1ccc(O)c(O)c1 (stereo not given in full) | 6.75
Cc1ccc(-n2cc(-c3ccc(Cl)cc3)c3c(NNC(=S)NCc4ccccc4)ncnc32)cc1 | 30.7
O=C(/C=C/CN1CCCCC1)Nc1cc2c(Nc3ccc(F)c(Cl)c3F)ncnc2cc1OCCOC(F)F | 3.56

// for each compound below, give its TGI
1. C#Cc1cccc(NC(=O)Nc2cccc(NC(=O)CCl)c2)c1
2. Cc1cccc(NC(=O)c2sc3nc4c(cc3c2N)CCC4)c1C
3. CC(=O)CC(=O)Nn1c(-c2cccs2)nc2ccc(I)cc2c1=O
4. CCN(CC)CCCC(C)NC(=S)N/N=C(\C)c1ccccn1 (stereo not given)

Result:
[27.8, 2.51, 34.4, 82]

====

- Test system: CCRF-CEM leukemia
- experimental.details: NCI tumour cell line growth inhibition, 48 h
Exercise: state measured TGI for each of the compounds provided.

For orientation, consider the following solved cases.
O=C(CCc1nnc2s/c(=C\c3ccc(Cl)cc3Cl)c(=O)n12)Nc1cc(Cl)c(Cl)cc1Cl | > 100 µM
Cn1c(N)cc(=O)nc1N | > 100 µM
Cc1ccc(S(=O)(=O)c2ccccn2)cc1 | > 100 µM
Cc1c2cccc-2c(N(C)C)cc2c1[nH]c1ccccc12 | 12.8 µM
O=c1c2ccccc2nc(-c2ccccc2Cl)n1NC1OC(CO)C(O)C(O)C1O (centres undefined) | > 100 µM
CC(C)(C)C(=O)Cc1cc2c(cc1C(=O)O)S(=O)(=O)NC(C(C)(C)C)=C2 | > 100 µM
CCOc1ccccc1Nc1nc(C)c(C(=O)CC(=O)C(=O)Nc2ccccc2)s1 | > 100 µM
Cc1ccc(SCN2CCCCC2)cc1 (tested in a mixture with another compound) | 6.59 µM
COc1ccc(C2CC(c3cccc(Nc4ccnc5cc(Cl)ccc45)c3)=NN2c2ccc(Cl)cc2)cc1 (centres undefined) | 43.4 µM
COc1cc2c(cc1C)NC(=O)/C2=C/c1c(Cl)n(C)c2ccccc12 | > 100 µM

List TGI for every entry below, keeping the order given.
1. CN(C)CCCNc1ccc2nnn3c4ccc([N+](=O)[O-])cc4c(=O)c1c23
2. COc1ccc2nccc(C3OC(=O)N4CCC(=O)CC34)c2c1 (centres undefined)

Result:
1. 12.1 µM
2. > 100 µM

Give measured TGI for every item shown.
1. COC(=O)C1(C(=O)OC)CC2=C(S(=O)(=O)c3ccccc3)C[C@@H](C#N)[C@H]2C1
2. COc1cc(C=Nc2ccc(Oc3ccc(Cl)cc3)c(Cl)c2)cc(OC)c1OC

Result:
> 100 µM
66.4 µM

====

- Test system: RPMI-8226 leukemia
- experimental.details: NCI tumour cell line growth inhibition, 48 h; in the data active means GI50 below about 0.43 µM; inactive means the rest
# valid calls are 1.0 for active, 0.0 for inactive; nothing else

Previously resolved entries follow.
O=C(CCc1nnc2s/c(=C\c3ccc(Cl)cc3Cl)c(=O)n12)Nc1cc(Cl)c(Cl)cc1Cl | 0.0
CCN(CC)CCC(CNc1c2ccc(Cl)cc2nc2ccc(OC)cc12)c1ccccc1 (centres undefined) | 0.0
COc1ccc(/C=C2\CC(C)CC3C2=NN(C(C)=O)C3c2ccc(OC)c(OC)c2)cc1OC (centres undefined) | 0.0
COC(=O)[C@@H](C)C[C@H](Cc1ccccc1)NC(=O)c1cccc([C@@H](C[C@H](C(C)C)N(C)C(=O)[C@@H](NC(=O)[C@H]2CCCCN2C)C(C)C)OC(C)=O)n1 | 1.0
CC(C)OC(=S)[S-].[Au+].c1ccc([PH+](c2ccccc2)c2ccccc2)cc1 | 0.0
Cc1nn(-c2ccccc2)c2ncc3c(c12)C(=O)N(Cc1ccccc1)C3=O | 0.0
O=C(/C=C\c1ccc(Cl)c(Cl)c1)c1ccccc1 | 0.0
COc1ccc(C(=O)CC(Cl)=C(Cl)Cl)cc1 | 0.0

Please find the next molecule below.
Query: In this assay, the call recorded for COc1ccc(-c2nccn2-c2cc(OC)c(OC)c(OC)c2)cc1 was what?
Result: 0.0

====

- System: MDA-MB-435
The reply should name one outcome from t for active, f for inactive

Consider the following illustrative entries.
COc1ccc(C2CC(c3cccc(Nc4ccnc5cc(Cl)ccc45)c3)=NN2c2ccc(Cl)cc2)cc1 (stereo not given) | f
CCN(CC)CCC(CNc1c2ccc(Cl)cc2nc2ccc(OC)cc12)c1ccccc1 (stereo not given) | f
CC1SC(c2cccc(Oc3ccccc3)c2)N(CCc2cccs2)C1=O (stereo not given) | f

Query: Test call for this compound, please: Cc1ccc(S(=O)(=O)NC(CCCCN)C(=O)CCl)cc1 (stereo not given)
Result: f

Query: Fill in: this test's call for COc1c(C)cnc(Cn2cnc3c(Cl)nc(N)nc32)c1C is ___
Result: t

====

- Test system: TK-10 renal
- experimental.details: NCI tumour cell line growth inhibition, 48 h; in the data active = GI50 below about 0.43 µM; inactive = the rest
# valid calls are active, inactive; nothing else

These solved cases illustrate the format of a correct answer.
COc1cc(C2C3=C(COC3=O)N(CCO)c3cc4c(cc32)CCC4)cc(OC)c1OC (centres undefined) | inactive
CN(C)c1ccc(/C=C/C(=O)c2ccc(Nc3nc(Nc4ccc(F)cc4)nc(Nc4ccc(Cl)cc4)n3)cc2)cc1 | inactive
COc1cc2c(c(OC)c1OC)-c1c(c3ccc([N+](=O)[O-])cc3c(=O)n1CCCN=[N+]=[N-])C2=O | inactive

Query: Called result for COc1ccc(/C(C)=C(\c2ccc(Cl)cc2)c2ccc(OCCN3CCCCC3)cc2)cc1F
Result: inactive

Query: I would be grateful if you could indicate the recorded call for C[As](C)SCC(COC(=O)c1ccccc1)OC(=O)c1ccccc1 (centres undefined) .
Result: active
